Reported values of abundance fitness for individual entries
B1: Gamma-crystallin C, residues 4 to 79; numbered along this chain, P07315 (parent)
chain: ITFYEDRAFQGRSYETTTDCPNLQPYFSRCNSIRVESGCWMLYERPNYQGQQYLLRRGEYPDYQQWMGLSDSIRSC

# Variants of: B1
# Method Summary: abundance fitness (aPCA) (normalised: wild type 0, dead -1); higher = more abundant; growth selection in yeast, the domain comes from the species named
# Condition Context: Homo sapiens
# respond with the number and nothing more

Known results for variants:
>  <Variant Id>
I33Q

>  <abundance fitness>
-0.792

$$$$
>  <Variant Id>
T17P

>  <abundance fitness>
-0.01

$$$$
>  <Variant Id>
F3S

>  <abundance fitness>
-1.01

$$$$
>  <Variant Id>
D62I

>  <abundance fitness>
-0.26

$$$$

Identify measured abundance fitness associated with "Q64L"
-0.081

Specify measured abundance fitness for "G68N" .
-0.053

# return recorded abundance fitness for entry "R74P"
-0.389
